system: rat adipocytes; test: isoproterenol-induced lipolysis (glycerol release); format: cell-based; settings: Rattus norvegicus, Adipocyte
pIC50: −log10 of the molar value.
property_name: pIC50

INSERT INTO measurements (molecule, experimental_system, readout_value) VALUES
  ('CCCCCCCCCCCCP1(=O)O[C@@H]2[C@H](O)[C@@H](O)[C@H](O)[C@@H](O)[C@@H]2O1 (mixture of isomers)', 'rat adipocytes', '5.30 to 5.70');

----------
test system: caveolin-1; assay: dissociation of signaling proteins from caveolin (caveolin-1 immunoprecipitates); assay type: cell-based, rat; settings: abrogation of insulin- and glimepiride-induced losses; Fig. 6 Panel B
pIC50: −log10 of the molar value.
property_name: pIC50

INSERT INTO assay_data (molecule, experimental_system, readout_value) VALUES
  ('CCCCCCCCCCCCP1(=O)O[C@@H]2[C@H](O)[C@@H](O)[C@H](O)[C@@H](O)[C@@H]2O1 (mixture of isomers)', 'caveolin-1', '5.00 to 5.30');

The measured values listed here are drawn from patent EP1566447A1.
